Provide the recorded fold change (FC) for the entries that follow.
# Experimental Target: Peroxisome proliferator-activated receptor alpha (Homo sapiens)
# Protocol Description: Agonist activity at PPARalpha ligand binding domain expressed in HEK293 cells co-expressing GAL4 at 150 uM after 18 hrs by dual-luciferase activity based transactivation assay relative to control
# Assay type: cell-based
Enter the number alone.

Query :: Look at this compound and give its reported fold change (FC). CCCC(Sc1nc2ccc(OCC)cc2s1)C(=O)NS(=O)(=O)c1ccccc1 (racemic)
Result :: 0.05

Query :: Which measured fold change (FC) value corresponds to O=C(NS(=O)(=O)c1ccccc1)C(Sc1nc2cc(Cl)ccc2s1)c1ccccc1 (racemic) ?
Result :: 0.01

Query :: Could you share which fold change (FC) value was measured for CCOc1ccc2nc(SC(C)C(=O)NS(=O)(=O)c3ccccc3)sc2c1 (racemic) ?
Result :: 0.89

Query :: Dear colleague, I am looking for the recorded fold change (FC) of the following compound: CC(C)(Oc1ccc(Cl)cc1)C(=O)O
Result :: 1.6

Query :: Would you mind telling me what fold change (FC) value was observed for CC(C)C(Sc1nc2cc(Cl)ccc2s1)C(=O)NS(=O)(=O)c1ccccc1 (racemic) ?
Result :: 0.1

Query :: Given the compound CCCCC(Sc1nc2cc(Cl)ccc2s1)C(=O)NS(=O)(=O)c1ccccc1 (racemic) , what is its reported fold change (FC)?
Result :: 0.01

Query :: Name the reported fold change (FC) value associated with the compound CCCC(Sc1nc2cc(Cl)ccc2s1)C(=O)NS(=O)(=O)c1ccccc1 (racemic)
Result :: 0.09

Query :: Can you look up the measured fold change (FC) of CCCCCCC(Sc1nc2cc(Cl)ccc2s1)C(=O)NS(=O)(=O)c1ccccc1 (racemic) for me?
Result :: 1.49

// data source = ChEMBL document CHEMBL1806398
